# TARGET_ENTITY: T1, Cynomolgus Monkey SIRPγ (plate-coated extracellular domain)
# T1 construct: also called Cyno SIRPγ
# T1 extracellular domain: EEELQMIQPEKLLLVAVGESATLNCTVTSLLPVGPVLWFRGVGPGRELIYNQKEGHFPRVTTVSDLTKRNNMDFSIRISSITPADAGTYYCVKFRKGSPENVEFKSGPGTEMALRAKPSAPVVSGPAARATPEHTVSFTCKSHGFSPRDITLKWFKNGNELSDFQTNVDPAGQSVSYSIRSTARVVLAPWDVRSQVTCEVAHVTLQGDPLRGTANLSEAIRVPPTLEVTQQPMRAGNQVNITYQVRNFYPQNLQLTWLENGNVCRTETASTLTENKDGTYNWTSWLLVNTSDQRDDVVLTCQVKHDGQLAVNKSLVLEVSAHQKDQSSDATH
# ASSAY_DETAILS: ELISA, coated SIRP ECD (2 µg/mL), anti-human IgG, luminescence

| BINDER | binding result |
| --- | --- |
| Antibody 78 (antibody, V domains shown) VH: QVQLVQSGAEVKKPGASVKVSCKASGYTFTTYGISWVRQAPGQGLEWMGWMDPNSGSTGYAQKFQGRVTMTRDTSTSTVYMELSSLRSEDTAVYYCARGRGNSYYYYYMDVWGKGTTVTVSS VL: DIQMTQSPSSLSASVGDRVTITCRASQRIGSYLNWYQQKPGKAPKLLIYGASNLQSGVPSRFSGSGSGTDFTLTISSLQPEDFATYYCQQANSFPFTFGPGTKVDIK | binds |

These measurements were taken from patent US20240400677A1.
